Please go through the items and note down their GH, 4 Hours.
Tested on: growth hormone (GH)
ASSAY NOTES: Suppression of growth hormone (duration of activity after sc injection)
Type: in vivo, rats
CONDITION DESCRIPTION: 1000 μg/kg. sc, rats, 4 hours
Method: A subcutaneous (sc) injection of peptide solubilized or suspended in physiological saline, is given to Charles River CD® nonfasted male rats. Matched saline control solution sc injected rats serve as control animals so that every experimental rat is paired with a control rat. […] Comparisons between control and experimental GH values at each time are evaluated by the Student "t" test and statistical significance (p) at the 0.05 level or lower is used as the index of activity.
Where a SMILES comes first, the peptide text is derived from it. Bridges are numbered along the chain shown (N, C = ends). [ ]: non-standard residue; d: D form.
Write the answer as a number in ng/mL, unit excluded.

Query: Given the molecule CC(C)C[C@H]1NC(=O)[C@@H](N)CSSC[C@@H](C(=O)O)NC(=O)[C@H](CO)NC(=O)[C@H]([C@@H](C)O)NC(=O)[C@H](Cc2ccccc2)NC(=O)[C@H]([C@@H](C)O)NC(=O)[C@H](CCCCN)NC(=O)[C@@H](Cc2c[nH]c3ccccc23)NC(=O)[C@H](Cc2ccccc2)NC(=O)[C@H](Cc2ccccc2)NC(=O)[C@@H](Cc2ccc(O)cc2)NC1=O [G] (H-C[dL][dY]FF[dW]KTFTSC-OH; disulfide 1-12) , what is its reported GH, 4 Hours?
Reply: 94

Query: Given the molecule C[C@@H](O)[C@@H]1NC(=O)[C@H](CCCCN)NC(=O)[C@@H](Cc2c[nH]c3ccccc23)NC(=O)[C@H](Cc2ccccc2)NC(=O)[C@H](Cc2ccccc2)NC(=O)[C@@H](CCCNC(=N)N)NC(=O)[C@@H](Cc2ccc(O)cc2)NC(=O)[C@@H](N)CSSC[C@H](C(=O)O)NC(=O)[C@H](CO)NC(=O)[C@H]([C@@H](C)O)NC(=O)[C@H](Cc2ccccc2)NC1=O [F] (H-C[dY][dR]FF[dW]KTFTS[dC]-OH; disulfide 1-12) , what is its reported GH, 4 Hours?
Reply: 99

Query: Given the molecule C[C@@H](O)[C@@H]1NC(=O)[C@H](CCCCN)NC(=O)[C@@H](Cc2c[nH]c3ccccc23)NC(=O)[C@H](Cc2ccccc2)NC(=O)[C@H](Cc2ccccc2)NC(=O)[C@@H](Cc2ccc(O)cc2)NC(=O)[C@@H](CCCNC(=N)N)NC(=O)[C@@H](N)CSSC[C@H](C(=O)O)NC(=O)[C@H](CO)NC(=O)[C@H]([C@@H](C)O)NC(=O)[C@H](Cc2ccccc2)NC1=O [H] (H-C[dR][dY]FF[dW]KTFTS[dC]-OH; disulfide 1-12) , what is its reported GH, 4 Hours?
Reply: 144

###

Test system: growth hormone (GH)
ASSAY NOTES: Suppression of growth hormone (duration of activity after sc injection)
Format: in vivo, rats
CONDITION DESCRIPTION: 1000 μg/kg. sc, rats, 4 hours
Where a SMILES comes first, the peptide text is derived from it. Bridges are numbered along the chain shown (N, C = ends). [ ]: non-standard residue; d: D form.
READOUT: GH, 4 Hours (ng/mL)
Write the answer as a number in ng/mL, unit excluded.

Query: Given the compound C[C@@H](O)[C@@H]1NC(=O)[C@H](Cc2ccccc2)NC(=O)[C@H]([C@@H](C)O)NC(=O)[C@H](CCCCN)NC(=O)[C@@H](Cc2c[nH]c3ccccc23)NC(=O)[C@H](Cc2ccccc2)NC(=O)[C@H](Cc2ccccc2)NC(=O)[C@@H](Cc2ccc(O)cc2)NC(=O)[C@@H](Cc2c[nH]cn2)NC(=O)[C@@H](N)CSSC[C@@H](C(=O)O)NC(=O)[C@H](CO)NC1=O [C] (H-C[dH][dY]FF[dW]KTFTSC-OH; disulfide 1-12) , what is its reported GH, 4 Hours?
Reply: 33

Query: Given the compound C[C@@H](O)[C@@H]1NC(=O)[C@H](CCCCN)NC(=O)[C@@H](Cc2c[nH]c3ccccc23)NC(=O)[C@H](Cc2ccccc2)NC(=O)[C@H](Cc2ccccc2)NC(=O)[C@@H](Cc2c[nH]c3ccccc23)NC(=O)[C@@H](Cc2ccc(O)cc2)NC(=O)[C@@H](N)CSSC[C@H](C(=O)O)NC(=O)[C@H](CO)NC(=O)[C@H]([C@@H](C)O)NC(=O)[C@H](Cc2ccccc2)NC1=O [Compound I] (H-C[dY][dW]FF[dW]KTFTS[dC]-OH; disulfide 1-12) , what is its reported GH, 4 Hours?
Reply: 86

Query: Given the compound C[C@@H](O)[C@@H]1NC(=O)[C@H](Cc2ccccc2)NC(=O)[C@H]([C@@H](C)O)NC(=O)[C@H](CCCCN)NC(=O)[C@@H](Cc2c[nH]c3ccccc23)NC(=O)[C@H](Cc2ccccc2)NC(=O)[C@H](Cc2ccccc2)NC(=O)[C@@H](Cc2c[nH]cn2)NC(=O)[C@@H](Cc2c[nH]cn2)NC(=O)[C@@H](N)CSSC[C@@H](C(=O)O)NC(=O)[C@H](CO)NC1=O [E] (H-C[dH][dH]FF[dW]KTFTSC-OH; disulfide 1-12) , what is its reported GH, 4 Hours?
Reply: 45

Query: Given the compound C[C@@H](O)[C@@H]1NC(=O)[C@H](Cc2ccccc2)NC(=O)[C@H]([C@@H](C)O)NC(=O)[C@H](CCCCN)NC(=O)[C@@H](Cc2c[nH]c3ccccc23)NC(=O)[C@H](Cc2ccccc2)NC(=O)[C@H](Cc2ccccc2)NC(=O)[C@@H](CCC(=O)O)NC(=O)[C@@H](Cc2ccc(O)cc2)NC(=O)[C@@H](N)CSSC[C@@H](C(=O)O)NC(=O)[C@H](CO)NC1=O [J] (H-C[dY][dE]FF[dW]KTFTSC-OH; disulfide 1-12) , what is its reported GH, 4 Hours?
Reply: 179

Query: Given the compound C[C@@H](O)[C@@H]1NC(=O)[C@H](Cc2ccccc2)NC(=O)[C@H]([C@@H](C)O)NC(=O)[C@H](CCCCN)NC(=O)[C@@H](Cc2c[nH]c3ccccc23)NC(=O)[C@H](Cc2ccccc2)NC(=O)[C@H](Cc2ccccc2)NC(=O)[C@@H](Cc2c[nH]c3ccccc23)NC(=O)[C@@H](CCCNC(=N)N)NC(=O)[C@@H](N)CSSC[C@@H](C(=O)O)NC(=O)[C@H](CO)NC1=O [D] (H-C[dR][dW]FF[dW]KTFTSC-OH; disulfide 1-12) , what is its reported GH, 4 Hours?
Reply: 11
